Molecular target: T1, RSV F subtype B, furin-cleaved ectodomain stabilized in the prefusion conformation (DS-Cav1) (Respiratory syncytial virus subtype B)
T1 construct: extracellular domain; Trimeric soluble antigen; also called Prefusion subtype B
Assay: BLI, IgG on AHQ sensor, 100 nM antigen
Entries annotated with measured pKd
Note on units: pKd is unitless, being -log10 of a concentration expressed in mol/L.

ADI-18910 (antibody, V domains shown, full-length IgG from yeast; also called Antibody Number 265; Ab # 265) VH: QVQLVQSGAEVKKPGSSVKVSCKASGGTFSSYAISWVRQAPGQGLEWMGGIIPMFDIVDYAQKFQGRVTITADESTNTAYMELTSLRSEDTAVYYCARTAALGPPGTIVGYMDVWGKGTTVTVSS VL: DIVMTQSPLSLPVTPGEPASISCRSSQSLLQSNGYNYLDWYLQKPGQAPQLLIYLGSNRASGVPDKFSGSGSGTDFTLKISRVEAEDVGVYYCMQTLQTPWTFGQGTKVEIK = 7.97

As a next step, examine the binder that follows.
Task: Give pKd for the following binder: ADI-18907 (antibody, V domains shown, full-length IgG from yeast; also called Antibody Number 262; Ab # 262) VH: QVQLVQSGPEVKKPGSSVKVSCKASGGTFSSYAITWVRQAPGQGLEWMGGIIPSFDRVDYSRNFKGRVTFTADKSANTAYMELTNVRSDDTAVYYCARGCCGAVAGFQHWGQGTGVTVSS VL: DIVLTQTPATLSLSPGETATLSCRASQSVTTYLAWYQQKPGQAPRLLIYDASNRATGVPTRFSGSGSGTDFTLTISSLEPEDYAIYYCQQRTTGVTFGGGTKVEIK
Output: 9.69
